These measurements were taken from patent US7608629B2.

Tested on: rabbit saphenous vein
protocol-text: Rabbit saphenous vein contraction
condition-info: Oryctolagus cuniculus
experimental-readout: pEC50
Answers are plain numbers, as −log10 of the molar value.

Fill in: pEC50 of CNS(=O)(=O)Cc1ccc2[nH]cc(CCN(C)C)c2c1 [sumatriptan] is ___
6.18

---

experimental-readout: melting point

CN1CCC(Oc2cccc(NC(=O)C3CCCCC3)c2)CC1.Cl :: 141 to 142 °C

List the reported melting point of each compound below.
1. CN1CCC(Oc2cc(NC(=O)c3ccc(F)cc3F)ccc2Cl)CC1.Cl
2. CN1CCC(Oc2cccc(NC(=O)c3ccc(F)c(F)c3F)n2)CC1.Cl
3. CN1CCC(Oc2cccc(NC(=O)c3ccccc3C(F)(F)F)c2)CC1.Cl

["257 °C (dec.)", "182.4 °C (dec.)", "135 to 136 °C"]
